test system: COLO 205 colon; assay: NCI tumour cell line growth inhibition, 48 h
reportedProperty: TGI

| compound | TGI |
| --- | --- |
| O=CNc1ncn[nH]1 | > 100 µM |
| CC1(C)CCC2=C(O1)c1ccccc1C(=O)C2=O | 3.63 µM |
| CCN(CC)CCOc1ccccc1/C=C/c1noc2ccccc12 | 24.1 µM |
| Cc1ccc(C(SCC(N)C(=O)O)(c2ccc(C)cc2)c2ccc(C)cc2)cc1 (stereo unspecified) | 5.62 µM |
| CN(C)CCN=C1Nc2ccccc2C(=S)N2CSCC12 (stereo unspecified) | > 100 µM |

Query block: Name the recorded TGI of the compound listed here: O=C(CSc1nc2[nH]ncc2c(=O)[nH]1)c1ccc(Cl)cc1
Result block: > 100 µM

Query block: Name the recorded TGI of the compound listed here: C/C=C/C1=CC(=O)C(O)C1O (stereo unspecified)
Result block: 51.8 µM

Query block: Name the recorded TGI of the compound listed here: C1=C(c2ccccc2)Nc2nnnn2C1c1ccccc1 (stereo unspecified)
Result block: > 100 µM

Query block: Name the recorded TGI of the compound listed here: C=C(C)[C@H]1C=C[C@@H](OC(=O)c2cccnc2)[C@@]23CO[C@@](C)([C@H](OC(=O)c4cccnc4)[C@@]4(OC(C)=O)C[C@H](C)[C@H](OCCC)[C@@H]4[C@H]2OC(C)=O)[C@H]13
Result block: > 15 µM

Query block: Name the recorded TGI of the compound listed here: COC(=O)C(C(=O)C(=O)Nc1nc(=S)[nH][nH]1)c1csc(-n2nc(-c3ccccc3)cc2-c2ccccc2)n1 (stereo unspecified)
Result block: > 100 µM

Query block: Name the recorded TGI of the compound listed here: Clc1ccc2c(c1)N(c1ncnc3ccc(-c4cnc5[nH]ccc5c4)cc13)CC2
Result block: > 100 µM

Query block: Name the recorded TGI of the compound listed here: COC(=O)C(Cc1cc(OC)c(OC)c(OC)c1)c1ccc(OC)cc1 (stereo unspecified)
Result block: > 100 µM

---

system: KM12 colon; assay: NCI tumour cell line growth inhibition, 48 h
Catalogue of compounds with associated TGI

Some entries whose results are on file:
| compound | testedTarget | measuredValue |
| --- | --- | --- |
| Cc1ccc(-c2cc(C(F)(F)F)nn2-c2ccc(S(N)(=O)=O)cc2)cc1 | KM12 colon | 35.9 µM |
| COc1ccc2c(c1)[nH]c(=O)c1c3cc(OC)ccc3cn21 | KM12 colon | 0.393 µM |
| CS(=O)(=O)Nc1ccc(-c2cc(-c3ccccc3)cc(C(N)=O)c2N)cc1 | KM12 colon | > 25 µM |
| O=C1NC(=O)C(=C/C=C/c2ccccc2)C(=O)N1 | KM12 colon | 3.26 µM |
| NC(=O)CCC(N=C(N)c1csc(C2OC(CO)C(O)C2O)n1)C(=O)O (stereo not given) | KM12 colon | > 100 µM |
| COc1cc2nc(SCC(=O)Nc3cc(OC)c(OC)c(OC)c3)n(Cc3ccccc3)c(=O)c2cc1OC | KM12 colon | > 100 µM |

Query block: Name the recorded TGI of the compound listed here: O=C(c1ccccc1)c1ccc(-n2c3ccccc3c3ccc4c(c32)C(=O)C=CC4=O)cc1
Result block: 37.5 µM

Query block: Name the recorded TGI of the compound listed here: O=C1C(=O)c2c(nc3ccc(Br)cn23)-c2ccccc21
Result block: 3.19 µM

Query block: Name the recorded TGI of the compound listed here: C=C(C)[C@@]1(OC(=O)c2cc([N+](=O)[O-])cc([N+](=O)[O-])c2)C[C@@H]2CCCC[C@@H]21
Result block: > 100 µM

Query block: Name the recorded TGI of the compound listed here: CC(C)(C)Nc1noc(=O)n1C(C)(C)C
Result block: > 100 µM

Recorded values, source PubChem BioAssay (NCI).
